Data credit: patent US20100291034A1

- TEST_METHOD_NOTES: Clinical study: pharmacokinetics of Formula Ia administered in combination with ritonavir
- Type: in vivo, human
- SETTINGS: human, plasma, oral; Mean PK (% CV); Formula Ia TID (400 mg) alone, Day 5; read-out: AUC8
QUANTITY_NAME: AUC (ng·h/mL)

INSERT INTO assay_data (compound, quantity_name, unit_label, result) VALUES
  ('CC(C)(C)NC(=O)N[C@H](C(=O)N1CC2C([C@H]1C(=O)NC(CC1CCC1)C(=O)C(N)=O)C2(C)C)C(C)(C)C (stereo partly shown)', 'AUC', 'ng·h/mL', 4120);
